- ASSAYED SYSTEM: T1, BMP-12 (UniProt Q7Z4P5 322-450, limits assumed)
- T1 construct: also called BMP12/GDF7
- T1 sequence (looked up): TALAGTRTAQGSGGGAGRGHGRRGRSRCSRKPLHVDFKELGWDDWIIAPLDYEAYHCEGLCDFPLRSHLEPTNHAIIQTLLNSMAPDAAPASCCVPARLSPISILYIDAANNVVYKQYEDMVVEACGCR
- ASSAY NOTES: peptide resin, filter plate; load 1: 50 mM Acetic Acid, 0.1 M NaCl, pH 2.9
No end group written: not given here.
Items are presented alongside their recorded Flow-through K.
MEASURED PARAMETER: Flow-through K

INSERT INTO assay_data (binder, measured_parameter, val) VALUES
  ('Ac-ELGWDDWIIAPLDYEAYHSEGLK [BMP12 N-trun_1S peptide 749]', 'Flow-through K', 5),
  ('Ac-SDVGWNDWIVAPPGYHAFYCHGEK [BMP2 N-trun peptide 750]', 'Flow-through K', 1),
  ('Ac-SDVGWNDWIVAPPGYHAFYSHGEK [BMP2 N-trun 1S peptide 751]', 'Flow-through K', 1),
  ('Ac-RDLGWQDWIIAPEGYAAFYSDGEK [BMP5 peptide 748]', 'Flow-through K', 11);
